Hey, just so you know, these numbers are from ChEMBL document CHEMBL3576844.

# test.target: Melanin-concentrating hormone receptor 1 (Homo sapiens) (UniProt Q99705)
# Sequence (Q99705 whole entry): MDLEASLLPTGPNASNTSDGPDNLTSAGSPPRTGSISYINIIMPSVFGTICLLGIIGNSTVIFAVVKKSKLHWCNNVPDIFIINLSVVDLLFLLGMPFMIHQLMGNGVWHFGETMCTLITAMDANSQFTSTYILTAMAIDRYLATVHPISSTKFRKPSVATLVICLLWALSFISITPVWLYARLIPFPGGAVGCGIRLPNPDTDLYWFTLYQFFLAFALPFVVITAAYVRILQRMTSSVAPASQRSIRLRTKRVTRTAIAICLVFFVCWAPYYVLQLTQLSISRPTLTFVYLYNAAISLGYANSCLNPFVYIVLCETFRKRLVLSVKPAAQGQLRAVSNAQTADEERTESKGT
# assay.details: Antagonist activity at human MCH1 receptor expressed in CHO cell membranes assessed as inhibition of MCH (4 to 19)-stimulated calcium mobilization at 0.1 uM measured every 2 secs by fluorometric analysis relative to control
# Format: functional, cell-based
outcome.measure: inhibition

// below: answered compounds
entry.smiles	test.target	inhibition
Cc1c2cc(-n3ccc(OCc4ccc(F)cc4)cc3=O)ccc2nn1C1CC1	Melanin-concentrating hormone receptor 1 (Homo sapiens) (UniProt Q99705)	70%
Cc1c2cc(-n3ccc(OCc4ccc(Cl)cc4)cc3=O)ccc2nn1C	Melanin-concentrating hormone receptor 1 (Homo sapiens) (UniProt Q99705)	83%
Cc1c2cc(-n3ccc(OCc4csc(C(F)(F)F)n4)cc3=O)ccc2nn1C1CC1	Melanin-concentrating hormone receptor 1 (Homo sapiens) (UniProt Q99705)	78%

Alright, here's another compound for you.
In: Form field: inhibition recorded for "Cc1c2cc(-n3ccc(OCc4csc(C(F)(F)F)c4)cc3=O)ccc2nn1C1CC1" with Melanin-concentrating hormone receptor 1 (Homo sapiens) (UniProt Q99705) (enter value)
Out: 55%
